Where these numbers come from: paper PMC3923644

# System Tested: APE1 WT (Homo sapiens, UniProt P27695 1-318)
# Sequence (P27695 whole entry): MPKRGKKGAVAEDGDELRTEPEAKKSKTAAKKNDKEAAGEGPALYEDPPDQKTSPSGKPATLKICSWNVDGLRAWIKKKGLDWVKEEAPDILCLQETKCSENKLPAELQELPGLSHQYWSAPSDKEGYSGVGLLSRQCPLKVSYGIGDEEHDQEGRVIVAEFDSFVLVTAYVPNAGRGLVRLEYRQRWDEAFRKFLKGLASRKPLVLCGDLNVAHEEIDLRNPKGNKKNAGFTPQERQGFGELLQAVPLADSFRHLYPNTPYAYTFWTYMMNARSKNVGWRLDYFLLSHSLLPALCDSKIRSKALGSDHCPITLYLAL
# Experiment Notes: SPR
pKd: −log10 of the molar value.
Measure: pKd

{"Binder": "nCaRE-B SIRT1-B mutated (biotinylated) (dsDNA) DNA 1: TTTTTGCTAAGGAGCGTCGCTCTTG DNA 2: CAAGAGCGACGCTCCTTAGCAAAAA", "Reading": 3.92}
